- assay-details: Half life in iv dosed rat
- Format: ADME, organism-based
- assay-conditions: in vivo
endpoint: half-life (h)
Response body: numeric value in h, unit text excluded.

Input line: Which half-life value belongs to O=C(N[C@@H]1N=C(c2ccccc2)c2ccccc2N(CC(F)(F)F)C1=O)N1CCC(N2Cc3ccccc3NC2=O)CC1 ?
Output line: 1.7

----------
Measured pIC50 values are reported for all entries that follow.
- measured-target: Calcitonin-gene-related peptide receptor, CALCRL/RAMP1 (Homo sapiens, UniProt O60894+Q16602)
- Sequence (O60894 whole entry): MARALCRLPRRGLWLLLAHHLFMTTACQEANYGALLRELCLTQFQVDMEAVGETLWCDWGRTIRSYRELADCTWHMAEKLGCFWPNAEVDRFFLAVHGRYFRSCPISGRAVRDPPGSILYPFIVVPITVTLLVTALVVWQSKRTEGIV
- Sequence (Q16602 whole entry): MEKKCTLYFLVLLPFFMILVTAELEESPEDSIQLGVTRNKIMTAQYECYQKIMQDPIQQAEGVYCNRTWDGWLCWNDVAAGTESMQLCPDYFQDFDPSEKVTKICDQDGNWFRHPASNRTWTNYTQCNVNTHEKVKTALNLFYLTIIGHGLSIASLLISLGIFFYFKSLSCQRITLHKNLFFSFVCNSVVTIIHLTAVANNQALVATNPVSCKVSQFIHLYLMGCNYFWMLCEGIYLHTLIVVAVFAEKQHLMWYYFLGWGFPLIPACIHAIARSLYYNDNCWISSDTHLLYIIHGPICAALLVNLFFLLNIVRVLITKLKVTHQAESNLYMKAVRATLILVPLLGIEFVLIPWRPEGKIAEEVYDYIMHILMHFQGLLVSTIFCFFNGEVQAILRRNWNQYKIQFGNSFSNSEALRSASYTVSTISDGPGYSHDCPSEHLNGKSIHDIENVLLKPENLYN
- assay-details: Antagonist activity at human cloned CLR/RAMP1 receptor expressed in E10 cells measured as inhibition of CGRP-mediated cAMP production
The quantity pIC50 is defined as the negative base-10 logarithm of the molar concentration.

- compound: "O=C(N[C@@H]1N=C(c2ccccc2)c2ccccc2N(CC(F)(F)F)C1=O)N1CCC(N2Cc3ccccc3NC2=O)CC1"
  readout-number: 7.42
- compound: "O=C(N[C@@H]1N=C(c2ccccc2)c2ccccc2N(CC(F)(F)F)C1=O)N1CCC(n2c(=O)[nH]c3ccccc32)CC1"
  readout-number: 5.80
- compound: "CCN1C(=O)[C@H](NC(=O)N2CCC(N3Cc4ccccc4NC3=O)CC2)N=C(c2ccccc2)c2ccccc21"
  readout-number: 6.00

Input line: Any idea what pIC50 was measured for CN1C(=O)[C@@H](NC(=O)N2CCC(N3Cc4ccccc4NC3=O)CC2)N=C(c2ccccc2)c2ccccc21 ?
Output line: 5.35

Input line: // pIC50 lookup, key: O=C(N[C@@H]1N=C(c2ccccc2)c2ccccc2N(CC(F)(F)F)C1=O)N1CCC(N2CCc3ccccc3NC2=O)CC1
Output line: 7.37

Input line: Entry under review: CC(C)N1C(=O)C(NC(=O)N2CCC(N3Cc4ccccc4NC3=O)CC2)N=C(c2ccccc2)c2ccccc21 (racemic) . Reported pIC50?
Output line: 5.74

Input line: Query: pIC50; subject: O=C(N[C@H](Cc1cc(Br)c(O)c(Br)c1)C(=O)N1CCN(c2ccccc2)CC1)N1CCC(n2c(O)nc3ccccc32)CC1
Output line: 7.12

Input line: Entry CN1C(=O)[C@H](NC(=O)N2CCC(N3Cc4ccccc4NC3=O)CC2)N=C(c2ccccc2)c2ccccc21 : reported pIC50 = ?
Output line: 5.44
